B1: RHOBTB2 (parent)
chain: LYTGELDENERDLMHIAHIAELLE

variants of: B1; assay: protein stability index of a GFP-peptide fusion (GPS, HEK-293T) (PSI 1-6); higher = more stable; details: c terminus: a fixed tail appended;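 further: lentivirally expressed fusions sorted by FACS into six bins by GFP to DsRed ratio, PSI derived from sequencing read proportions per bin multiplied by bin number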
Please respond with reported protein stability index for every item in the list.
Numbers only.

L22E ... 4.08

Please give protein stability index, item by item, for the list that follows.
1. G4E
2. L1C

-- reply
1: 2.32; 2: 2.67
